# Subject of test: T1, human GIP receptor (human, UniProt P48546 22-466)
# T1 sequence (looked up): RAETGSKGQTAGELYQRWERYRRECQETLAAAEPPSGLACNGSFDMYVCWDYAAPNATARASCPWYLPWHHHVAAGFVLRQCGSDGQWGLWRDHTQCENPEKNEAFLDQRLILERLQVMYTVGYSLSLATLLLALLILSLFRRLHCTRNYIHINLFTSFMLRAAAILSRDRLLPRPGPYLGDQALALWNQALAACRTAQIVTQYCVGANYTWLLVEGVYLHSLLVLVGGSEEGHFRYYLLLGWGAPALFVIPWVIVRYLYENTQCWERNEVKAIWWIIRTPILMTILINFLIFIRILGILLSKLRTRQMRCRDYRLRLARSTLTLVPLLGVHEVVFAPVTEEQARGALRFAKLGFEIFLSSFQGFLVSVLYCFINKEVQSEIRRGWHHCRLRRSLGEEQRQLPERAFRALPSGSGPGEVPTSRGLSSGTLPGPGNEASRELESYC
# Assay details: cell-based or functional assay
Bridge positions count the residues as written; N and C are the ends. Square brackets hold non-standard residues; d marks the D form. Ends that are not written are not given here. * marks the point of attachment. Acetyl(2-(4-imidazolyl)) = O=C(Cc1c[nH]cn1)*; Aib = CC(C)(N)C(=O)O
Overview of reported In vitro activity compared to native-type peptide (%), vs GIP across a group of binders:

[
  {
    "Binder": "Y[Aib]QGTFTSDYSKYLDEKAAKEFVQWLLDHHPSSGQPPPSC (bridge 16-20) [triple agonist of SEQ ID NO: 75]",
    "Result": "18%"
  },
  {
    "Binder": "{Acetyl(2-(4-imidazolyl))}-[Aib]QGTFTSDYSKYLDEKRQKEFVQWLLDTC (bridge 15-19) [triple agonist of SEQ ID NO: 82]",
    "Result": "< 0.1%"
  },
  {
    "Binder": "[Acetyl(2-(4-imidazolyl))]GQGTFTSDLSKQMDSERAREFIEWLKNTGPSSGAPPPSHG [triple agonist of SEQ ID NO: 18]",
    "Result": "< 0.1%"
  },
  {
    "Binder": "HGQGTFTSDCSKQLDGQAAQEFVAWLLAGGPSSGAPPPS [triple agonist of SEQ ID NO: 44]",
    "Result": "< 0.1%"
  }
]

In the following, a different binder is considered.
Exam item: State the recorded In vitro activity compared to native-type peptide (%), vs GIP for this entry: Y[Aib]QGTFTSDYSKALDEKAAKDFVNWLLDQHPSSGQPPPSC (bridge 16-20) [triple agonist of SEQ ID NO: 102]
Marked response: 58%
